Molecular target: UniProtKB P33261
Sequence (P33261 whole entry): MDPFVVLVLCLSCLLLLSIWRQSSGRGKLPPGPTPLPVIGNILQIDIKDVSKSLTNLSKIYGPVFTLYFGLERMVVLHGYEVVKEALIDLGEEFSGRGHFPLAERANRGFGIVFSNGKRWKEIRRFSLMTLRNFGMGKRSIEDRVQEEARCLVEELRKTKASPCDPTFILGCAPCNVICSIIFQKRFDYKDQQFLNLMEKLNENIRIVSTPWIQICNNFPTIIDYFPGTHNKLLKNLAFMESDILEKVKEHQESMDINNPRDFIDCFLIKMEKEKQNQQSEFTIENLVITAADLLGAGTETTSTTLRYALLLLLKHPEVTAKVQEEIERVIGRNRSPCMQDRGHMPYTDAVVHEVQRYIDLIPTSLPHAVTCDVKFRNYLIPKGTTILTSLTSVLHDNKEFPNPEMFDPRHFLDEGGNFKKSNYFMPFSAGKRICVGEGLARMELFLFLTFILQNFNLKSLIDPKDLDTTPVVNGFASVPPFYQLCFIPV
Experiment: Cytochrome panel assay with activity outcomes. Panel member name: p450-cyp2c19 Compounds with AC50 equal or less than 10 uM are considered active
Assay type: functional
Conditions: read-out: AC50
Catalogue of AC50 readings, one per entry.

Solved entries:
{"columns": ["smiles-repr", "target-of-assay", "measured-parameter", "recorded-result"],
 "data": [
  ["COC(=O)N1CCC2(CCCN(C(=O)Nc3cccc(C#N)c3)C2)CC1", "UniProtKB P33261", "AC50", "10 µM (inconclusive)"],
  ["C[C@]12CC[C@H]3c4ccc(OC[C@H]5CO5)cc4CC[C@H]3[C@H]1CC[C@@H]2O", "UniProtKB P33261", "AC50", "3.16 µM (inconclusive)"]
]}

Give me measured AC50, please, for this molecule: COC(=O)[C@@]1(Cc2ccc(F)cc2)[C@H]2c3cc(C(=O)N4CCCC4)n(Cc4ccccn4)c3C[C@H]2CN1C(=O)c1ccccc1
39.8 µM (inconclusive)

Indicate the recorded AC50 value for this molecule: Cc1n[nH]c(C)c1S(=O)(=O)N1CCC(C(=O)O)CC1
22.4 µM (inconclusive)

---

Molecular target: Cytochrome P450 1A2 (Homo sapiens, UniProt P05177);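 further: PubChem cytochrome P450 panel assay, CYP1A2 panel member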
Sequence (P05177 whole entry): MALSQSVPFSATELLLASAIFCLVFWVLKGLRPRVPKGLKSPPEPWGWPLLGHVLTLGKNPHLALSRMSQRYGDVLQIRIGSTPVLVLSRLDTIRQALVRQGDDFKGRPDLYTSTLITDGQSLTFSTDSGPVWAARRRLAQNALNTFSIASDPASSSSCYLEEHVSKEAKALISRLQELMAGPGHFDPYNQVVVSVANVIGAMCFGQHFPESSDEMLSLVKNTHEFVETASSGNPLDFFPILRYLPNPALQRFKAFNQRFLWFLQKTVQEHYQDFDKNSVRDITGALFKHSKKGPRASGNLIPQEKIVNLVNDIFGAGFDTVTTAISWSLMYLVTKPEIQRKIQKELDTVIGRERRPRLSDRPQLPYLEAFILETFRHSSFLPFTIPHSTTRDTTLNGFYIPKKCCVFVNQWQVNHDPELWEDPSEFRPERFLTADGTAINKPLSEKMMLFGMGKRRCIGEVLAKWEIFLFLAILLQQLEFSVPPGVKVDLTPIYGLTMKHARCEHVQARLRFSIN
measured-parameter: AC50

{"columns": ["compound", "measured-parameter", "recorded-result"],
 "data": [
  ["N[C@H](C(=O)O)[C@H](O)C(=O)O", "AC50", "39.8 µM (inconclusive)"],
  ["CC(C)(CO)N1CCN(C(S)=Nc2ccccc2)CC1", "AC50", "6.31 µM (inconclusive)"],
  ["COc1cccc(Nc2ncc3nc(-c4cccs4)c(=O)n(Cc4cccs4)c3n2)c1", "AC50", "2 µM (inconclusive)"],
  ["Cc1ccc(C(=O)COC(=O)CNC(=O)Cc2ccccc2)cc1[N+](=O)[O-]", "AC50", "25.1 µM (inconclusive)"],
  ["Cc1ccc2nc(CC(=O)c3ccc4ccccc4c3)c(O)nc2c1", "AC50", "2 µM (inconclusive)"]
]}

Quick one: give measured AC50 for COc1c(F)c(F)c(C(=O)O)c(Nc2ccc(C)cc2)c1F
22.4 µM (inconclusive)

Look up AC50 of FC(F)(F)c1nc2ccc(SSc3ccc4nc(C(F)(F)F)[nH]c4c3)cc2[nH]1 and report it.
0.501 µM (inconclusive)

Return AC50 (reported value) for this compound: CC(C)NC[C@H]1CCc2cc(CO)c([N+](=O)[O-])cc2N1
10 µM (inconclusive)

For CCc1ccc(OCC(=O)OC2CCS(=O)(=O)C2)cc1 (configuration not stated) , write its AC50.
12.6 µM (inconclusive)

---

Target: DNA repair protein RAD52 homolog (Homo sapiens, UniProt P43351)
Sequence (P43351 whole entry): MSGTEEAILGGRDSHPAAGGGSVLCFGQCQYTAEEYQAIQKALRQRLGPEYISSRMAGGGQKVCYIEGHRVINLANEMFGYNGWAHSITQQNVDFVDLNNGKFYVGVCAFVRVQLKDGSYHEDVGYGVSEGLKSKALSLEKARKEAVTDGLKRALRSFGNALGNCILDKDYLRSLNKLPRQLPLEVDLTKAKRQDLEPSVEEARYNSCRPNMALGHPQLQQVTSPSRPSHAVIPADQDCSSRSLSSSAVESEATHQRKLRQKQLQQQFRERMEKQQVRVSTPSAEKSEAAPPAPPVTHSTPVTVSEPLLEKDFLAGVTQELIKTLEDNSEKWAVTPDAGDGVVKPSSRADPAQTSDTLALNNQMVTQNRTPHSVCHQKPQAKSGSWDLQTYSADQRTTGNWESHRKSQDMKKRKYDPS
Assay type: functional, biochemical
Structures can show the parent of a compound that is named as a salt. Active and inactive are the calls of the source.
We begin with a simple list: items and their reported AC50.

Take a look at these entries with their results.
{"columns": ["molecule", "target-of-assay", "AC50"],
 "data": [
  ["COc1cc(NCCCCC(C)N)c2nccc(C)c2c1 (stereo unspecified)", "DNA repair protein RAD52 homolog (Homo sapiens, UniProt P43351)", "5.43 µM (active)"],
  ["COc1ccc(-c2cc3nc(NCCCN(C)C)n(C)c(=O)c3s2)cc1OC", "DNA repair protein RAD52 homolog (Homo sapiens, UniProt P43351)", "4.79 µM (active)"],
  ["CCN(c1ccccc1)S(=O)(=O)c1ccc(C(=O)N(CCCN(C)C)c2nc3cc4c(cc3s2)OCO4)cc1", "DNA repair protein RAD52 homolog (Homo sapiens, UniProt P43351)", "11.1 µM (active)"],
  ["c1ccc2c(NCCCN3CCOCC3)c3ccccc3nc2c1", "DNA repair protein RAD52 homolog (Homo sapiens, UniProt P43351)", "1.06 µM (active)"],
  ["NCCc1cc(O)c(O)cc1O [OXIDOPAMINE HYDROCHLORIDE]", "DNA repair protein RAD52 homolog (Homo sapiens, UniProt P43351)", "4.12 µM (active)"]
]}

As a next step, examine the molecule that follows.
Look up and report measured AC50 (DNA repair protein RAD52 homolog (Homo sapiens, UniProt P43351)) for the following molecule: Cc1cc(N2CCCC2)nc2ccc(NC(S)=NCCCN3CCC(C)CC3)cc12
2.27 µM (active)

---

Target: Peroxisome proliferator-activated receptor gamma/Nuclear receptor coactivator 1 (Homo sapiens)
Sequence (P37231 whole entry): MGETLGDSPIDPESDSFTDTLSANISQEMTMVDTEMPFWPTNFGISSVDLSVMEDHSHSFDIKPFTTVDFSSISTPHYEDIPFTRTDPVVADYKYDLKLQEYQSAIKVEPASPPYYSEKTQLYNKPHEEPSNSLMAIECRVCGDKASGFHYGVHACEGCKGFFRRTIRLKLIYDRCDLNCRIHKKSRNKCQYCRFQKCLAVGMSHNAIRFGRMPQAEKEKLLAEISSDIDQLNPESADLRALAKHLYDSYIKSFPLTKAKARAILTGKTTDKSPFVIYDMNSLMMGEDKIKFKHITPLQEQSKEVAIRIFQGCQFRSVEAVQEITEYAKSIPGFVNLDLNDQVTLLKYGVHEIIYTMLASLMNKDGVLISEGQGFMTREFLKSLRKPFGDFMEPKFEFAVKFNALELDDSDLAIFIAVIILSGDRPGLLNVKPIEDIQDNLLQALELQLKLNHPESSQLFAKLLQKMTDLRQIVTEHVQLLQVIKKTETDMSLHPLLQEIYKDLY
Sequence (Q15788 whole entry, further chain): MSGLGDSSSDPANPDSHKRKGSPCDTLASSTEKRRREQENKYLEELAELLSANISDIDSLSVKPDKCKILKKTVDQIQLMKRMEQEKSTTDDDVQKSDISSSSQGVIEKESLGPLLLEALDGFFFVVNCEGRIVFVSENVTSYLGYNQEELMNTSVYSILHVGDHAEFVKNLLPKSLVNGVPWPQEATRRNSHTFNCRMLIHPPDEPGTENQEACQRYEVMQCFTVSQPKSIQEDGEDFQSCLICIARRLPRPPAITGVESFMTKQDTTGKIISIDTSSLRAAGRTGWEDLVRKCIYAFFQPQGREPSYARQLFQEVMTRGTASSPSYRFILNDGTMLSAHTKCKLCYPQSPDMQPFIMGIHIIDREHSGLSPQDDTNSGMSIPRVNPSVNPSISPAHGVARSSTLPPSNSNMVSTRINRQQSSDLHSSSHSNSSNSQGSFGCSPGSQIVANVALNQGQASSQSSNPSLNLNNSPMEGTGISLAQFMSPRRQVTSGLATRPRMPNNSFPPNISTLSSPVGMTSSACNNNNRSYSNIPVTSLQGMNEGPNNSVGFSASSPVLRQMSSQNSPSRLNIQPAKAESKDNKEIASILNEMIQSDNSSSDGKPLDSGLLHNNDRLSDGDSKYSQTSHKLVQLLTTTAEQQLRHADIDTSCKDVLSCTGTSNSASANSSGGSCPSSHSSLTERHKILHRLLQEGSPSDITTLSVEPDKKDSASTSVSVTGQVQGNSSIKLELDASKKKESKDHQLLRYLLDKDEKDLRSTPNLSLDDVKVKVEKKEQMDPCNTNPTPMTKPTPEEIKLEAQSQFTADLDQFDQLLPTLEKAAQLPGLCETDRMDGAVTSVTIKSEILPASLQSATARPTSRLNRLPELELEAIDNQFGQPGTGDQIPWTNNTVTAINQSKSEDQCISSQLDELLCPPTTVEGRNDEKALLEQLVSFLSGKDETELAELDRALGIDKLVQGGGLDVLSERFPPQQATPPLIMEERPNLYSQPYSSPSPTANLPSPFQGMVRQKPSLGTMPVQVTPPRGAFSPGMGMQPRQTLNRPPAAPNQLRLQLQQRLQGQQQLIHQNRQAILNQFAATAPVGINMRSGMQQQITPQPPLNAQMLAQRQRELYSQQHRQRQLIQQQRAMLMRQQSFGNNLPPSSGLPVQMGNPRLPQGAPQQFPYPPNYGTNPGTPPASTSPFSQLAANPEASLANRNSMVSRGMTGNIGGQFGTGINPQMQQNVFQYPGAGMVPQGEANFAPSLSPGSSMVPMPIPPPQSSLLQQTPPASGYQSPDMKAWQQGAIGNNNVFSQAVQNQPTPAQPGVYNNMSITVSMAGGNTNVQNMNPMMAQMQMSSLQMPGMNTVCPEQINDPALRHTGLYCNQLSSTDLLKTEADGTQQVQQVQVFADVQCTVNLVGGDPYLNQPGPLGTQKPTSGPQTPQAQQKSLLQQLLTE
Assay: TR-FRET dose response biochemical High Throughput Screening assay for agonists of the steroid receptor coactivator 1 (SRC-1) recruitment by the peroxisome proliferator-activated receptor gamma (PPAR gamma): non-selective agonists. [Related pubchem assays (depositor defined):AID1300, AID1808, AID504735, AID631]
Type: protein assay
The source made the active and inactive calls.
measured-parameter: EC50

Example entries and their recorded answers appear below.
{"columns": ["smiles-repr", "EC50"],
 "data": [
  ["O=C(CSc1ncnc2c1oc1ccccc12)Nc1cccc(Cl)c1", "37.1 µM (inactive)"],
  ["CCn1c(=O)cc(SCC(=O)NCc2ccco2)c2ccccc21", "> 79.4 µM (inactive)"],
  ["Cc1cccc(OCC(=O)Nc2nnc(-c3ccco3)s2)c1", "> 26.5 µM (inactive)"]
]}

Consider the record given below.
Hello, please tell me recorded EC50 for this one: COc1ccc(-c2nnc(Nc3ccc(S(=O)(=O)Nc4nccs4)cc3)c3ccccc23)cc1
14.9 µM (inactive)

---

Molecular target: Luciferin 4-monooxygenase (Photinus pyralis)
Sequence (P08659 whole entry): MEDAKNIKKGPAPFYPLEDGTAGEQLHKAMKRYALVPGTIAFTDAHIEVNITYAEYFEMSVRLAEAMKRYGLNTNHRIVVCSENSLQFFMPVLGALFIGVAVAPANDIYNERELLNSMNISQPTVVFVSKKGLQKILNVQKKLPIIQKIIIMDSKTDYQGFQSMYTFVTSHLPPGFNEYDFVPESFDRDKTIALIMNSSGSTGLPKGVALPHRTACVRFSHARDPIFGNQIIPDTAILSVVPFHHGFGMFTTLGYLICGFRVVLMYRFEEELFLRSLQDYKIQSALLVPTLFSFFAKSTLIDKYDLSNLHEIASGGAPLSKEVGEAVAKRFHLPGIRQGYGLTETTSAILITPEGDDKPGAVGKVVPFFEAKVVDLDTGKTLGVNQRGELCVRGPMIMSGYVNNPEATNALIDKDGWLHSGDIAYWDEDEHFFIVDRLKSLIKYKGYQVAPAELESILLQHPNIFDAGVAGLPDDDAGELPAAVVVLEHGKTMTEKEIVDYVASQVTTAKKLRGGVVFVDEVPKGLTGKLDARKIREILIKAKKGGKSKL
Assay: inhibition of purified Photinus pyralis luciferase – biochemical, luminescence, dose response (AID 1891)
Active and inactive are the calls of the source.
measured-parameter: EC50

Given CN(C)c1ccc(Nc2nc(N)c3ccccc3n2)cc1 , respond with its EC50.
1.37 µM (active)

---

Biological target: Small ubiquitin-related modifier 1 (Homo sapiens)
Sequence (P63165 whole entry): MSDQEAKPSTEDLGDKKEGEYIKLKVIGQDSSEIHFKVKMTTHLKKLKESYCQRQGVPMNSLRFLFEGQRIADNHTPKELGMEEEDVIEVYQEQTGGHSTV
Assay: SUMO1 protein-protein binding blockers, potency – biochemical, FRET, dose response (AID 624383)
Format: functional
Conditions: read-out: IC50_Mean
The source made the active and inactive calls.
measured-parameter: IC50

Consider the following illustrative entries.
{"columns": ["molecule", "measured-parameter", "recorded-result"],
 "data": [
  ["COc1ccc(-c2nnc(Nc3ccc(S(=O)(=O)Nc4nccs4)cc3)c3ccccc23)cc1", "IC50", "18.2 µM (active)"],
  ["CCOC(=O)C1=C(COc2ccccc2)NC(=O)NC1c1ccc(Cl)cc1 (centres undefined)", "IC50", "15.7 µM (active)"],
  ["COc1ccc(-c2csc(/C(C#N)=C\\c3ccc(O)c([N+](=O)[O-])c3)n2)cc1OC", "IC50", "52.1 µM (inactive)"]
]}

Specify IC50 for O=S(=O)(c1cc(O)ccc1O)c1cccc2c(S(=O)(=O)c3cc(O)ccc3O)cccc12 and stop.
5.39 µM (active)

---

Tested on: Streptococcus
Experiment: GAS UMAA2166 growth inhibition – luminescence, BacTiterGlo, counter-screen for streptokinase expression inhibitor project, dose response (AID 1915);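 further: potency for reduction of bacterial viability or growth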
Format: functional, organism-based
Activity calls are given as the source filed them.
Consider the following compounds and their measured EC50 readings.

Solved cases below.
{"columns": ["smiles-repr", "recorded-result"],
 "data": [
  ["COc1ccc(-c2cc3ncnc(Cl)c3s2)cc1", "26 µM (active)"],
  ["COc1ccccc1CNC(=O)CSc1nc(=O)n(Cc2ccncc2)c2c1CCC2", "> 150 µM (not active)"],
  ["CC(=O)Nc1nnc(S(=O)(=O)N2CCN(c3ccc([N+](=O)[O-])cc3Cl)CC2)s1", "> 150 µM (not active)"],
  ["Cc1nn(-c2ccc(Cl)cc2)c(Cl)c1/C=N/NC(=O)c1ccc(NS(=O)(=O)c2cccs2)cc1", "5.2 µM (active)"]
]}

In one line, give reported EC50 of the entry CCc1nnc(NS(=O)(=O)c2ccc(NCc3cc(Cl)cc(Cl)c3O)cc2)s1 .
> 150 µM (not active)

Output EC50 of CN(C)/C=C(\C=N\OCc1ccc(Cl)cc1Cl)C(=O)Nc1ccc(Cl)c(Cl)c1
3.07 µM (active)
